Recorded values, source the kinase profiling compilation of Christmann-Franck et al. (2016).

Each record here notes measured residual activity.
- Target Or Test System: UniProt:Q8N5S9
- Sequence (Q8N5S9 whole entry, looked up): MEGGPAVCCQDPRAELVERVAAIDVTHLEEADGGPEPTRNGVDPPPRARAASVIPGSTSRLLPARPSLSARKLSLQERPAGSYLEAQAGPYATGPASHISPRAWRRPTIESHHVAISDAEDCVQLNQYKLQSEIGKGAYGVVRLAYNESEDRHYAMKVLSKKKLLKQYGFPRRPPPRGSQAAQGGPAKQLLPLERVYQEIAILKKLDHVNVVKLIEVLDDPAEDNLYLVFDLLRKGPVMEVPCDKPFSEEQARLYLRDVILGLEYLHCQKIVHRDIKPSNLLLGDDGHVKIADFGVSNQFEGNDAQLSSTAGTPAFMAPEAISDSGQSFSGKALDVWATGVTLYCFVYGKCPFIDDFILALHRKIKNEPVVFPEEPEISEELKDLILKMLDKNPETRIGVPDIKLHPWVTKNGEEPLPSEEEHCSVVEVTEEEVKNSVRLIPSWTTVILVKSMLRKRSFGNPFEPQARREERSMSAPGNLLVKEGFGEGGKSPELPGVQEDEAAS
- Protocol Notes: radiometric filter-binding kinase assay, Kinase HotSpot
- Assay Conditions: compound 0.5 µM; ATP 10 µM
The figure you give is taken to be in %; do not add the unit.

Given the compound COc1cc2c(cc1OC)-c1[nH]nc(Nc3cccc(F)c3)c1C2 , what is its reported residual activity?
81.5

Consider the compound CN[C@@H]1C[C@H]2O[C@@](C)([C@@H]1OC)n1c3ccccc3c3c4c(c5c6ccccc6n2c5c31)C(=O)NC4 and give its measured residual activity.
-3.13

---

- Target Or Test System: TLK2 (human) (UniProt Q86UE8)
- Sequence (Q86UE8 whole entry, looked up): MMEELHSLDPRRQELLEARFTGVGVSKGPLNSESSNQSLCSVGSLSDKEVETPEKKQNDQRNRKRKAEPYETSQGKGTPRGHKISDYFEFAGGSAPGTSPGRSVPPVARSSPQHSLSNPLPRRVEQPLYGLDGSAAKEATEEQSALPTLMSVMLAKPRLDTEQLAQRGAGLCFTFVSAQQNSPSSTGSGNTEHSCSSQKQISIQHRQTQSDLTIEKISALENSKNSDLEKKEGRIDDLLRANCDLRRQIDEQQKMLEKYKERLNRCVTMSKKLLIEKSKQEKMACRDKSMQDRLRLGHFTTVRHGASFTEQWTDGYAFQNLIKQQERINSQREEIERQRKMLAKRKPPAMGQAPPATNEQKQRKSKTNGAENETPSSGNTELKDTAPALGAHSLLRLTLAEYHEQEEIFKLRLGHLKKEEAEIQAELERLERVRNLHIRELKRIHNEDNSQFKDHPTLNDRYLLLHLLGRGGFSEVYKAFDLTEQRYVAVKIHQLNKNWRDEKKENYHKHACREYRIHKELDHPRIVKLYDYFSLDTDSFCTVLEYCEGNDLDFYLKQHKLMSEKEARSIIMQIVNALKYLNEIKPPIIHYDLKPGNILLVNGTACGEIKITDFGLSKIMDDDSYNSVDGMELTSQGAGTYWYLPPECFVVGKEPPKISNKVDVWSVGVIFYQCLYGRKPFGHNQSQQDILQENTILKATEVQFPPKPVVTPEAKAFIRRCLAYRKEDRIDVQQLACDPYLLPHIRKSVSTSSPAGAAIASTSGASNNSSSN
- Protocol Notes: radiometric filter-binding kinase assay, Kinase HotSpot
- Assay Conditions: compound 0.5 µM; ATP 10 µM
This section presents compounds with their documented residual activity values.
// note: answer is a bare numeric in %

>  <Compound Structure String>
N#Cc1c(NC(=O)c2cccc3ccccc23)sc2c1CCCC2

>  <Output Unit>
%

>  <residual activity>
98.9

$$$$

# lookup: residual activity of Cn1cc(/C=C2\C(=O)Nc3ccc(S(N)(=O)=O)cc32)c2ccccc21
63.2

Any idea what residual activity was measured for COc1cc2c(N3CCN(C(=O)Nc4ccc(OC(C)C)cc4)CC3)ncnc2cc1OCCCN1CCCCC1 ?
96.2

---

- Target Or Test System: RPS6KA3 KD1 KD2 (human) (UniProt P51812)
- Sequence (P51812 whole entry, looked up): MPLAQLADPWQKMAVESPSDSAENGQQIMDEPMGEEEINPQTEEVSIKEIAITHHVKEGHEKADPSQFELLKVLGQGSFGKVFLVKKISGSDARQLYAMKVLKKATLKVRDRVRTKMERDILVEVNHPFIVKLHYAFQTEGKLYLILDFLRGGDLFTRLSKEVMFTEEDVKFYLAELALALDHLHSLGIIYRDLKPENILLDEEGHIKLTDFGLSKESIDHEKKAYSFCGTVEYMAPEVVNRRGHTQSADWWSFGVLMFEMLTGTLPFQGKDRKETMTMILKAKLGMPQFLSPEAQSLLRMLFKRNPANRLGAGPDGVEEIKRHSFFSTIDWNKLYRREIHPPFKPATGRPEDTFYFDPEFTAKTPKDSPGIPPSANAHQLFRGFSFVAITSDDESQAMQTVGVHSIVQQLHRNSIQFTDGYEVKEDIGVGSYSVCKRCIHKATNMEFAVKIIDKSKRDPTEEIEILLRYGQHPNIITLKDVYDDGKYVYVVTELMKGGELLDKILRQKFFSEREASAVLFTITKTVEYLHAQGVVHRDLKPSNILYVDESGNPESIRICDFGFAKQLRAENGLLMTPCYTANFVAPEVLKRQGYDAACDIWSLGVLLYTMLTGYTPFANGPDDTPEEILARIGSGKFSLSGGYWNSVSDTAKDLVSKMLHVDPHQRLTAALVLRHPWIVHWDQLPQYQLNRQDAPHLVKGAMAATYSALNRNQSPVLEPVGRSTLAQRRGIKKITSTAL
- Protocol Notes: radiometric filter-binding kinase assay, Kinase HotSpot
- Assay Conditions: compound 0.5 µM; ATP 10 µM
Measured residual activity accompanies every entry in the list below.
State just the number; it will be interpreted in %.

These solved cases illustrate the format of a correct answer.
>  <Compound Structure String>
N#CCCc1ccc2c(c1)-c1[nH]c3ccc([N+](=O)[O-])cc3c1CC(=O)N2

>  <Target Or Test System>
RPS6KA3 KD1 KD2 (human) (UniProt P51812)

>  <Value Measured>
28.6

$$$$
>  <Compound Structure String>
COc1cccc(-c2cc(=O)c3ccccc3o2)c1N

>  <Target Or Test System>
RPS6KA3 KD1 KD2 (human) (UniProt P51812)

>  <Value Measured>
93.6

$$$$
>  <Compound Structure String>
O=S(=O)(NCCNC/C=C/c1ccc(Br)cc1)c1cccc2cnccc12

>  <Target Or Test System>
RPS6KA3 KD1 KD2 (human) (UniProt P51812)

>  <Value Measured>
70.9

$$$$
>  <Compound Structure String>
O=c1c2ccccc2[nH]c(=S)n1CCN1CCC(=C(c2ccc(F)cc2)c2ccc(F)cc2)CC1

>  <Target Or Test System>
RPS6KA3 KD1 KD2 (human) (UniProt P51812)

>  <Value Measured>
99.8

$$$$
>  <Compound Structure String>
O=C(O)c1ccc2c3c1cccc3c(=O)n1c3ccccc3nc21

>  <Target Or Test System>
RPS6KA3 KD1 KD2 (human) (UniProt P51812)

>  <Value Measured>
95.5

$$$$
>  <Compound Structure String>
c1ccc(-c2cnc(Nc3ccc(OCCN4CCCC4)cc3)s2)cc1

>  <Target Or Test System>
RPS6KA3 KD1 KD2 (human) (UniProt P51812)

>  <Value Measured>
92.2

$$$$
>  <Compound Structure String>
O=c1cc(N2CCOCC2)oc2c(-c3ccccc3)cccc12

>  <Target Or Test System>
RPS6KA3 KD1 KD2 (human) (UniProt P51812)

>  <Value Measured>
98.1

$$$$
>  <Compound Structure String>
O=C(c1ccccc1)c1ccc(N2CCOCC2)cc1O

>  <Target Or Test System>
RPS6KA3 KD1 KD2 (human) (UniProt P51812)

>  <Value Measured>
104

$$$$
>  <Compound Structure String>
CCc1nc(-c2ccc(OC)cc2)[nH]c1-c1ccncc1

>  <Target Or Test System>
RPS6KA3 KD1 KD2 (human) (UniProt P51812)

>  <Value Measured>
98.7

$$$$
>  <Compound Structure String>
Nc1ncnc2c1cnn2-c1ccccc1

>  <Target Or Test System>
RPS6KA3 KD1 KD2 (human) (UniProt P51812)

>  <Value Measured>
95

$$$$

The record that follows has no residual activity shown yet.
# input compound: COc1cc2c(Nc3ccc(Br)cc3F)ncnc2cc1OCC1CCN(C)CC1 ; wanted: its residual activity
97.8

---

- Target Or Test System: MAPK14 (human) (UniProt Q16539)
- Sequence (Q16539 whole entry, looked up): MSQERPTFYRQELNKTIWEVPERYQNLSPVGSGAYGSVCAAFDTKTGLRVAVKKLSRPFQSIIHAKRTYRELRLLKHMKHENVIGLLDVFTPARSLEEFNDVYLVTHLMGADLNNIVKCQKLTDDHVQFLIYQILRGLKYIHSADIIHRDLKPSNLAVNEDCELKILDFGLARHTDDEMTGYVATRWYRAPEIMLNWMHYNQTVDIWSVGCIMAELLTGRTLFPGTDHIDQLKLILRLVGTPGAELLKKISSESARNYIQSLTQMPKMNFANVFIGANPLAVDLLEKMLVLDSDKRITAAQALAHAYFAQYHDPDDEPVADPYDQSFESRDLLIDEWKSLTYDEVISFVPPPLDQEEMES
- Protocol Notes: radiometric filter-binding kinase assay, Kinase HotSpot
- Assay Conditions: compound 0.5 µM; ATP 10 µM
# key: entry, value: residual activity
Kindly provide the numeric value in % only, without the unit symbol.

Would you please look over these solved cases?
>  <Compound Structure String>
COc1cc2c(cc1OC)-c1[nH]nc(Nc3cccc(F)c3)c1C2

>  <residual activity (%)>
94.3

$$$$
>  <Compound Structure String>
O=c1cc(N2CCOCC2)oc2c(-c3ccccc3)cccc12

>  <residual activity (%)>
87.7

$$$$
>  <Compound Structure String>
Nc1ncnc2c1cnn2-c1ccccc1

>  <residual activity (%)>
89.2

$$$$

Which measured residual activity value corresponds to FC(F)(F)c1ccc(/C=C/c2nc(COc3ccc(CCCCn4ccnn4)cc3)co2)cc1 ?
103

What value of measured residual activity is listed for O=c1c2ccccc2[nH]c(=S)n1CCN1CCC(=C(c2ccc(F)cc2)c2ccc(F)cc2)CC1 ?
99

Name the recorded residual activity for N#CCCc1ccc2c(c1)-c1[nH]c3ccc([N+](=O)[O-])cc3c1CC(=O)N2 .
91.8

---

- Target Or Test System: CDK9 CCNK (human) (UniProt O75909+P50750)
- Sequence (O75909 whole entry, looked up): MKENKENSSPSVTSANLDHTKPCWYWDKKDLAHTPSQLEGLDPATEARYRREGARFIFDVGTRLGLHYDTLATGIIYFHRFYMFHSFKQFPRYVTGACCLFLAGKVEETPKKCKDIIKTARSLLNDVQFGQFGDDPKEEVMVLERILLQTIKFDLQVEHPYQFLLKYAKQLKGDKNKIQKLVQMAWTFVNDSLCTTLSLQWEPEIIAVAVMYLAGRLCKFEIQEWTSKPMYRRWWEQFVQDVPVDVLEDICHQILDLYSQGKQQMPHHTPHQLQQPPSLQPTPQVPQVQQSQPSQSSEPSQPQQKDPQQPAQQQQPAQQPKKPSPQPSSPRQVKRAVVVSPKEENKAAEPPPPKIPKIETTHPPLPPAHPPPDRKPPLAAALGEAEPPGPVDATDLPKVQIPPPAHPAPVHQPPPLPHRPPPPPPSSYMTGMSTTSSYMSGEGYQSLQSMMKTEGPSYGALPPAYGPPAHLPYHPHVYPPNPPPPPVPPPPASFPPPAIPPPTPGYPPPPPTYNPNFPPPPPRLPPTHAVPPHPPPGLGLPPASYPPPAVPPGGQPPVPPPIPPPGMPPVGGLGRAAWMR
- Sequence (P50750 whole entry, looked up): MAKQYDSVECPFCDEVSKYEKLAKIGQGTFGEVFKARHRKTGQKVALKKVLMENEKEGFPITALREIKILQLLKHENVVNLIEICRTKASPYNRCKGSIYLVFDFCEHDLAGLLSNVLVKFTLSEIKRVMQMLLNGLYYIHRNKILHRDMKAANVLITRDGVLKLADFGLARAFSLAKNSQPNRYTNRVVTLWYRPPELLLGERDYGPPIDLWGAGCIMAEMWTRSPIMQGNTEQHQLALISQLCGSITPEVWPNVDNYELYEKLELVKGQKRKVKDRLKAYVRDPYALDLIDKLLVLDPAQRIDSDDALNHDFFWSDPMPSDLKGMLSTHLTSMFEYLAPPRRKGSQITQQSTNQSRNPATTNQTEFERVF
- Protocol Notes: radiometric filter-binding kinase assay, Kinase HotSpot
- Assay Conditions: compound 0.5 µM; ATP 10 µM
Output MET for records whose residual activity is lower than 30%, NOT MET for records at or above 30%.

# count of solved cases: 2
>  <Compound Structure String>
FC(F)(F)c1ccc(/C=C/c2nc(COc3ccc(CCCCn4ccnn4)cc3)co2)cc1

>  <Answer Label>
NOT MET

$$$$
>  <Compound Structure String>
CN[C@@H]1C[C@H]2O[C@@](C)([C@@H]1OC)n1c3ccccc3c3c4c(c5c6ccccc6n2c5c31)C(=O)NC4

>  <Answer Label>
MET

$$$$

Hello, I'm reviewing records and need to know if residual activity of CC(C)(C)n1nc(Cc2cccc3ccccc23)c2c(N)ncnc21 is below 30%. Could you check?
NOT MET

Does the reported residual activity of N#C/C(=C1/Nc2ccccc2S1)c1ccnc(NCCc2cccnc2)n1 stay below 30%?
MET

In plain terms, does O=S(=O)(NCCNC/C=C/c1ccc(Br)cc1)c1cccc2cnccc12 come in under 30% for residual activity?
NOT MET

---

- Target Or Test System: MERTK (human) (UniProt Q12866)
- Sequence (Q12866 whole entry, looked up): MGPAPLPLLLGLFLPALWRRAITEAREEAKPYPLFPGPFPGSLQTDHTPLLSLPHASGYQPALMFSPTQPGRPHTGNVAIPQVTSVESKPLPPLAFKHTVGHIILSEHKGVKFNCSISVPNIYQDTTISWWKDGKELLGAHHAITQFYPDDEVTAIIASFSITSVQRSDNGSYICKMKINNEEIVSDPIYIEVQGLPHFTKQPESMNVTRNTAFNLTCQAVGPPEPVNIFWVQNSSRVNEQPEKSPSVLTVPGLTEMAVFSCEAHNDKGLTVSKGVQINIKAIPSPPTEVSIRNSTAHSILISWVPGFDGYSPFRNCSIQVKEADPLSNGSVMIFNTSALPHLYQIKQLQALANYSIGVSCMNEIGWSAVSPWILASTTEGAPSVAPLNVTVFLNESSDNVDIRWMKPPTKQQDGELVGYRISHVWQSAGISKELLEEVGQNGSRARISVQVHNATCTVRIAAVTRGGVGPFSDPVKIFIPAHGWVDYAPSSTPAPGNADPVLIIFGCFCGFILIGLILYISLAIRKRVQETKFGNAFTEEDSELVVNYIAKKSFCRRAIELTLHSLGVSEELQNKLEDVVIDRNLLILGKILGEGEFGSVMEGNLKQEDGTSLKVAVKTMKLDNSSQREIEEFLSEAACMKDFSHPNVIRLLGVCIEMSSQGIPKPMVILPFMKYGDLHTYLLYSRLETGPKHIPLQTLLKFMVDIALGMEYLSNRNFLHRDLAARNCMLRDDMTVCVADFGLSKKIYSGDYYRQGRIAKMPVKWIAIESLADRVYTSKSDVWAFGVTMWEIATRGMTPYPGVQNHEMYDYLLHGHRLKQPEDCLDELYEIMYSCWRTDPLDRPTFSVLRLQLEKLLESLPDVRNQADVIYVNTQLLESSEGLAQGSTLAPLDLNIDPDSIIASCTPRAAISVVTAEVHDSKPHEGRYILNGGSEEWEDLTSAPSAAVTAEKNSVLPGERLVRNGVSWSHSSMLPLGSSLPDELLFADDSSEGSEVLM
- Protocol Notes: radiometric filter-binding kinase assay, Kinase HotSpot
- Assay Conditions: compound 0.5 µM; ATP 10 µM
Metric: residual activity (%)
# value in %; strip the unit string

Enter reported residual activity observed with MERTK (human) (UniProt Q12866) for N#Cc1c(NC(=O)c2cccc3ccccc23)sc2c1CCCC2
97.9

Value wanted: residual activity (MERTK (human) (UniProt Q12866)) of entry CCCCc1c(-c2ccc(O)cc2)[nH]c2nccnc12
94.1

Give MERTK (human) (UniProt Q12866) residual activity for Cn1cc(/C=C2\C(=O)Nc3ccc(S(N)(=O)=O)cc32)c2ccccc21
45.9

Missing value: residual activity, MERTK (human) (UniProt Q12866), entry COc1cc2c(cc1OC)-c1[nH]nc(Nc3cccc(F)c3)c1C2 . Fill in?
78.7

Form: Entry = COc1cc2ncnc(Nc3ccc(O)c(Br)c3)c2cc1OC | System = MERTK (human) (UniProt Q12866) | residual activity = ____
87.7

Provide value of residual activity for this record tested with MERTK (human) (UniProt Q12866): O=c1[nH]c2ccccc2n1C1CCN(Cc2ccc(-c3nc4cc5[nH]cnc5cc4nc3-c3ccccc3)cc2)CC1
96.2

Tell me reported residual activity for Cc1cc(Nc2nc(-c3ccccc3)nc3ccccc23)n[nH]1 , tested with MERTK (human) (UniProt Q12866).
72.2

Missing value: residual activity, MERTK (human) (UniProt Q12866), entry CCOc1cc2ncnc(Nc3cccc(Br)c3)c2cc1OCC . Fill in?
87.1

What residual activity appears in the records for this molecule with MERTK (human) (UniProt Q12866)? c1ccc(-c2cnc(Nc3ccc(OCCN4CCCC4)cc3)s2)cc1
87.8

GET /values?readout=residual activity&system=MERTK (human) (UniProt Q12866)&item= O=c1c2ccccc2[nH]c(=S)n1CCN1CCC(=C(c2ccc(F)cc2)c2ccc(F)cc2)CC1
97

# get_value(readout= residual activity, system= MERTK (human) (UniProt Q12866)) for COc1cccc(-c2cc(=O)c3ccccc3o2)c1N
98

Give residual activity (MERTK (human) (UniProt Q12866)) of the following molecule: O=S(=O)(NCCNC/C=C/c1ccc(Br)cc1)c1cccc2cnccc12
79.8

Record lookup: for MERTK (human) (UniProt Q12866), what residual activity belongs to FC(F)(F)c1ccc(/C=C/c2nc(COc3ccc(CCCCn4ccnn4)cc3)co2)cc1 ?
97.9

Could you share what residual activity was measured for N/C(=N\N=C/c1ccc(-c2cccc([N+](=O)[O-])c2)o1)N[N+](=O)[O-] , tested on MERTK (human) (UniProt Q12866)?
92.3

Form: Entry = COc1cc2c(N3CCN(C(=O)Nc4ccc(OC(C)C)cc4)CC3)ncnc2cc1OCCCN1CCCCC1 | System = MERTK (human) (UniProt Q12866) | residual activity = ____
106
